# Test system: RPMI-8226
# EXPERIMENTAL_PROTOCOL: NCI tumour cell line growth inhibition, 48 h
The source made the active and inactive calls. Cut-off read from the data, not from the text of the source: active = GI50 up to about 1.1 µM and inactive = higher.
Classes used: 1 = active, -1 = inactive

{"MOLECULE": "CC(=O)OC1(C)CC(C)C(=O)C(C(O)CC2CC(=O)NC(=O)C2)C1 (stereo unspecified)", "CLASS_NAME": 1}
{"MOLECULE": "COC1(OC)CC2CCCCC2=C(C)N1S(=O)(=O)c1ccccc1 (stereo unspecified)", "CLASS_NAME": -1}
{"MOLECULE": "CC1OC(n2cnc3c(N)nc(Cl)nc32)C(C)(O)C1O (stereo unspecified)", "CLASS_NAME": -1}
{"MOLECULE": "O=C(c1ccc([N+](=O)[O-])cc1)N1CCCC1", "CLASS_NAME": -1}
{"MOLECULE": "CCCCCCC(=O)c1ccc2ccccc2c1O", "CLASS_NAME": -1}
{"MOLECULE": "CCCCCCCCCCCCCCCCC(=O)NCC(=O)NCC(=O)NC(Cc1ccccc1)C(=O)Oc1ccc([N+](=O)[O-])cc1 (stereo unspecified)", "CLASS_NAME": -1}
